- System: EGFR WT (Homo sapiens, UniProt P00533)
- Sequence (P00533 25-1210): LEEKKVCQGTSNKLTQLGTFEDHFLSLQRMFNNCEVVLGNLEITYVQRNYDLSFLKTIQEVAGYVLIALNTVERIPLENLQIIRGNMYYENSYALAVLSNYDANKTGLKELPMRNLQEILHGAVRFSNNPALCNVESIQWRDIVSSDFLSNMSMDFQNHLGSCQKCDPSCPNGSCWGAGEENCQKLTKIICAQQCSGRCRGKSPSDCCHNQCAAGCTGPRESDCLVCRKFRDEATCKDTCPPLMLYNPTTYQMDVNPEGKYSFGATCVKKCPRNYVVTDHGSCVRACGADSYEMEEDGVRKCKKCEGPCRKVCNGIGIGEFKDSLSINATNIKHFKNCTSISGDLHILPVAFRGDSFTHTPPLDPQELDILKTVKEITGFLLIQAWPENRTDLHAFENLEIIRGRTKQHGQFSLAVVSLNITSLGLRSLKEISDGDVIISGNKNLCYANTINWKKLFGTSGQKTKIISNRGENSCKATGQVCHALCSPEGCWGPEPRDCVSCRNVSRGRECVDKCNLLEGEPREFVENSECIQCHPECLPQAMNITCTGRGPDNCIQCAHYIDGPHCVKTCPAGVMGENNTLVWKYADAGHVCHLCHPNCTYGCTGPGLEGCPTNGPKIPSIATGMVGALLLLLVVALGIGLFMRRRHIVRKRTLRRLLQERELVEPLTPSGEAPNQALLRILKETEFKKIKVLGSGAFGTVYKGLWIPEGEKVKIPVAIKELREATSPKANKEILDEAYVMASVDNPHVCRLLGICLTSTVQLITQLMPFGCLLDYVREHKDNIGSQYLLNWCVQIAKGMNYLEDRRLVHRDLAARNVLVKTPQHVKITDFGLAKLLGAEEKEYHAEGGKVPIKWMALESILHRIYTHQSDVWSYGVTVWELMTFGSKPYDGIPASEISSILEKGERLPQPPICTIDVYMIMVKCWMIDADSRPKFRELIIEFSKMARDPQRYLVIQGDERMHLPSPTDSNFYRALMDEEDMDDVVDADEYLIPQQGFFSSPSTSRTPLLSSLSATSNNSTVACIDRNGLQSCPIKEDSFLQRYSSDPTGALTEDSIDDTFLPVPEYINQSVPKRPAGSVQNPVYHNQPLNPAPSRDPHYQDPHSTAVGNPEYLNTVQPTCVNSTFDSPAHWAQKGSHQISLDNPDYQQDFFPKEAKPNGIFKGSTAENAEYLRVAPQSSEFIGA
pKd: −log10 of the molar value.

{"Molecule": "COc1cc2ncnc(Nc3ccc(F)c(Cl)c3)c2cc1OCCCN1CCN(C(=O)CCCNC(=O)CCc2ccc3n2[B-](F)(F)[N+]2=C(C)C=C(C)C2=C3)CC1 [Compound 6, reference compound]", "System": "EGFR WT (Homo sapiens, UniProt P00533)", "pKd": 5.80}

----------
The entries below come with measured IC50 values attached.
- System: EGFR WT (Homo sapiens)
- Construct: made in house; host or cells: Sf9 insect cells (MultiBac baculovirus)
- Assay Comment: TR-FRET probe displacement assay, EGFR WT
- Assay type: binding
- Details: 30 min incubation, mean of at least 3 replicates; read-out: WT pIC50 (converted)
- Procedure: The binding mode of gefitinib, typical of an anilinoquinazoline-based kinase inhibitor, is well characterised, with the morpholine side-chain extending into the solvent exposed region where a variety of substituents are tolerated. […] Accordingly, probe compound 6 was prepared, in which the morpholine was replaced by a piperazine and a BODIPY fluorophore was attached via a 4-aminobutanoate spacer (Fig. 3a). A related sapitinib-derived tracer has subsequently been described. […]
Property: IC50 (µM)

{"Structure As Smiles": "C=CC(=O)N1CC[C@H](Oc2cc3c(Nc4ccc(F)c(Cl)c4)ncnc3cc2OC)C1", "Quantitative Result": 0.00501}
{"Structure As Smiles": "COc1cc2ncnc(Nc3ccc(F)c(Cl)c3)c2cc1O[C@@H]1CCN(C(C)=O)C1", "Quantitative Result": 0.0398}
{"Structure As Smiles": "C=CC(=O)N1CC[C@@H](Oc2cc3c(Nc4ccc(F)c(Cl)c4)ncnc3cc2OC)C1", "Quantitative Result": 0.316}
{"Structure As Smiles": "COc1cc2ncnc(Nc3ccc(F)c(Cl)c3)c2cc1O[C@H]1CCN(C(C)=O)C1", "Quantitative Result": 0.126}
